- assayRemarks: Kinetic solubility in pH 7.4 PBS
- Type: physicochemical
- measurementConditions: read-out: Kinetic_solubility
parameter: solubility kinetic (mg/mL)

{"compoundString": "C=Cc1ccc(-c2cc3ncnc(SCC(=O)O)c3s2)cc1", "resultValue": 0.074}
{"compoundString": "O=C(O)CSc1ncnc2cc(-c3ccc(C(F)(F)F)cc3)sc12", "resultValue": 0.057}
{"compoundString": "O=C(O)CSc1ncnc2cc(-c3ccc(F)c(F)c3)sc12", "resultValue": 0.065}

* * *

- assayRemarks: Kinetic solubility in pH 7.4 PBS
- Type: physicochemical
- measurementConditions: read-out: Kinetic_solubility
Some compounds, each annotated with its measured log10(solubility kinetic).
parameter: log10(solubility kinetic) (log10 of the value in µg/mL)

{"compoundString": "CSc1ccc(-c2cc3ncnc(SCC(=O)O)c3s2)cc1F", "resultValue": 1.72}
{"compoundString": "O=C(O)CSc1ncnc2cc(-c3cccc(N4CCOCC4)c3)sc12", "resultValue": 1.73}
{"compoundString": "O=C(O)CSc1ncnc2cc(-c3ccccc3F)sc12", "resultValue": 1.71}
{"compoundString": "CCOC(=O)c1ccc(-c2cc3ncnc(SCC(=O)O)c3s2)cc1", "resultValue": 1.77}
{"compoundString": "O=C(O)CSc1ncnc2cc(-c3ccc(C4CC4)cc3)sc12", "resultValue": 1.74}
{"compoundString": "CSc1ccc(-c2cc3ncnc(SCC(=O)O)c3s2)cc1", "resultValue": 1.62}
{"compoundString": "COc1ccccc1-c1cc2ncnc(SCC(=O)O)c2s1", "resultValue": 1.84}
{"compoundString": "COc1ccc(-c2cc3ncnc(SCC(=O)O)c3s2)cc1F", "resultValue": 1.69}
{"compoundString": "CC(C)c1ccc(-c2cc3ncnc(SCC(=O)O)c3s2)cc1", "resultValue": 1.36}
{"compoundString": "O=C(O)CSc1ncnc2cc(-c3cccs3)sc12", "resultValue": 1.75}
{"compoundString": "O=C(O)CSc1ncnc2cc(-c3ccc(N4CCOCC4)cc3)sc12", "resultValue": 1.79}
{"compoundString": "O=C(O)CSc1ncnc2cc(-c3cc4ccccc4s3)sc12", "resultValue": 0.70}

* * *

- targetSystem: Aurora kinase B (Homo sapiens)
- Sequence (Q96GD4 whole entry): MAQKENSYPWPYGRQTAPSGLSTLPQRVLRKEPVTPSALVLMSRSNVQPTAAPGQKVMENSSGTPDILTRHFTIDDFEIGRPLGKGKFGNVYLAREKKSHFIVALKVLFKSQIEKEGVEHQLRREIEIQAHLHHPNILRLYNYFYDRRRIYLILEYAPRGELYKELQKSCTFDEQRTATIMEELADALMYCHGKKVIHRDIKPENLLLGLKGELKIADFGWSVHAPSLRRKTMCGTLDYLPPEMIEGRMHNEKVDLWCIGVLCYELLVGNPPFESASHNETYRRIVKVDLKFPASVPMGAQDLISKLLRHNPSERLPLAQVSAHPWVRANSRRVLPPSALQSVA
- assayRemarks: Inhibition of human AURKB in presence of ATP at Km level

{"compoundString": "O=C(O)CSc1ncnc2cc(-c3cc4ccccc4s3)sc12", "unitText": "µM", "IC50": 8.9}

* * *

- targetSystem: Serine/threonine-protein kinase 17A (Homo sapiens, UniProt Q9UEE5)
- Sequence (Q9UEE5 whole entry): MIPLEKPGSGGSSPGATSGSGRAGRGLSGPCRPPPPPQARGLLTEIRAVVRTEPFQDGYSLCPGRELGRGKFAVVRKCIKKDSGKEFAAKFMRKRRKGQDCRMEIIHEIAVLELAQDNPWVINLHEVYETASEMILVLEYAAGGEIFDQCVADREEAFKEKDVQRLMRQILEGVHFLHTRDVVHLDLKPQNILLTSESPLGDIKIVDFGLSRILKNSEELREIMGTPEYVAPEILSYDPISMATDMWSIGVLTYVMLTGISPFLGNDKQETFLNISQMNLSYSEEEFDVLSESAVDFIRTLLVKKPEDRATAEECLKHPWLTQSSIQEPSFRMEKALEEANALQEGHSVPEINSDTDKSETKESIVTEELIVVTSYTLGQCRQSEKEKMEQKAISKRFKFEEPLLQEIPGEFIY
- assayRemarks: Binding affinity to human STK17A assessed as displacement of immobilized ligand by KINOMEscan scanMAX assay relative to control
parameter: Kd (nM)

{"compoundString": "O=C(O)CSc1ncnc2cc(-c3cc4ccccc4s3)sc12", "targetSystem": "Serine/threonine-protein kinase 17A (Homo sapiens, UniProt Q9UEE5)", "resultValue": 440}
